Target: human LAP3 (Homo sapiens, UniProt P28838)
Construct: purchased Assay Genie, Ireland
Sequence (P28838 whole entry): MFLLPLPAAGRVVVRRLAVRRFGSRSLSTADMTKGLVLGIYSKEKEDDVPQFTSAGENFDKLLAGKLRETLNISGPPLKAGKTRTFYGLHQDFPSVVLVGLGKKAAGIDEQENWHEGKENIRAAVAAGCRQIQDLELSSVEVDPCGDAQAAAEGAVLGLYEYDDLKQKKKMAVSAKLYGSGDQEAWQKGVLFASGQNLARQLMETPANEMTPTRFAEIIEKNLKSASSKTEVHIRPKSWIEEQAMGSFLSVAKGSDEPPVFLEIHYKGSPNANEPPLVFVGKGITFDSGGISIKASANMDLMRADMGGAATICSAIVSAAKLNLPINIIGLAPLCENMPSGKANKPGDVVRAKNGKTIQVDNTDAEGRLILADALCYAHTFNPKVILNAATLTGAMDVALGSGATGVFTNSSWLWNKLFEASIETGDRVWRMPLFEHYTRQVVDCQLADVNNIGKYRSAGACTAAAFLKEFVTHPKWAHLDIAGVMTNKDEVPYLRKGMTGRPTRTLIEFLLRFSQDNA
Experiment: Dose-response studies for human LAP3 inhibition by RapidFire-MS
Format: biochemical
QUANTITY_NAME: IC50

Exercise: Under human LAP3 (Homo sapiens, UniProt P28838): IC50 value of COc1ccc2oc(C(=O)Nc3nc(-c4ccccn4)cs3)c(C)c2c1 [Compound 4] ?
Key: > 100 µM

---

Biological target: LAPTc (acidic M17 leucyl-aminopeptidase from T. cruzi) (Trypanosoma cruzi, UniProt V5BWE3)
Sequence (V5BWE3 entry or part of it): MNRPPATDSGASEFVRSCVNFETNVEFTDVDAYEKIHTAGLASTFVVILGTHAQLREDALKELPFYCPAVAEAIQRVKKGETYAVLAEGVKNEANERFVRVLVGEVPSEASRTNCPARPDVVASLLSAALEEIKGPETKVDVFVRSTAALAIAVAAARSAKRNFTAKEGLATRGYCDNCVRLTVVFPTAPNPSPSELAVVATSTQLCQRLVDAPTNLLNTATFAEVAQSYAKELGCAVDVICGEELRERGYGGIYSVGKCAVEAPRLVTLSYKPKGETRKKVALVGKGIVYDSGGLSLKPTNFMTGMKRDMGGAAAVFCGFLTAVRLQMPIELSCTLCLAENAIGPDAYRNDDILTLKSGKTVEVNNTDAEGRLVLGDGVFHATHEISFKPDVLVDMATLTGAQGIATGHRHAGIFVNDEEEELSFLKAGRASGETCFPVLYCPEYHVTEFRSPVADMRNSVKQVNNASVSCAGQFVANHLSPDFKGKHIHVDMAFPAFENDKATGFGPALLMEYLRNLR
Experiment: Dose-response studies for LAPTc inhibition by RapidFire-MS
Format: biochemical
Conditions: Replicate data generation, individual replicates; read-out: Maximum Effect
Listing of recorded Emax by entry.
Provide only the numeric value, understood in %.

>>> assay_value("COc1ccc(CC(=O)Nc2nc(-c3ccccn3)cs2)c(OC)c1")
68
>>> assay_value("O=C(NCC(=O)N1CCc2ccccc2C1)C1CCCCC1")
64
>>> assay_value("Nc1[nH]cnc1-c1nc(-c2ccccc2)cs1")
53

Exercise: Find the recorded Emax belonging to "N#CC(=Cc1cn(Cc2ccc(C(=O)O)o2)c2ccccc12)c1nc2ccccc2[nH]1" and report it.
Key: 88

Exercise: Another compound: Cn1ccnc1C(NS(=O)(=O)c1ccc(C#N)cc1)c1cccc(F)c1 (centres unmarked)
Key: 79
